# ASSAY_NAME: Plasma pharmacokinetics of SLC-0111 after single and repeated dosing
# Format: in vivo, human
# CONDITION_PARAMETERS: human, plasma, oral, Tmax, range of cohort means, Day 28, 500-2000 mg cohorts
MEASURE_NAME: Tmax

// recorded Tmax for NS(=O)(=O)c1ccc(NC(=O)Nc2ccc(F)cc2)cc1 : 2.61 to 5.02 h

====

# ASSAY_NAME: Plasma pharmacokinetics of SLC-0111 after single and repeated dosing
# Format: in vivo, human
# CONDITION_PARAMETERS: human, plasma, oral, 500 mg, AUC(0-24), 500 mg, Day 1, mean, N=3
MEASURE_NAME: AUC(0-t) (ng·h/mL)
Field format: number, assumed ng·h/mL, no unit text.

// NS(=O)(=O)c1ccc(NC(=O)Nc2ccc(F)cc2)cc1 : AUC(0-t) value = 33000
